test_summary: Displacement of [3H]muscimol from GABAA receptor in Sprague-Dawley rat brain membrane`after 60 mins by TopCount microplate scintillation counting analysis
test_readout: pKi
One number for each entry.

For orientation, consider the following solved cases.
- Oc1noc(C2CCNCC2)c1Cc1ccc2ccc(Br)cc2c1: 6.96
- Oc1noc(C2CCNCC2)c1Cc1ccc2ccccc2c1-c1ccccc1: 7.68
- N#Cc1c(Cc2c(O)noc2C2CCNCC2)ccc2ccccc12: 7.55
- Oc1noc(C2CCNCC2)c1Cc1ccc2c(Br)cccc2c1: 7.1

The following compounds each have a reported value; give each one's pKi.
1. CSc1c(Cc2c(O)noc2C2CCNCC2)ccc2ccccc12
2. Oc1noc(C2CCNCC2)c1Cc1ccc2ccccc2c1F

7.55
7.72
